experiment: Bmi1 luciferase reporter increase in mESCs, primary screen, esBAF inhibitor project, mouse ES cells, Bmi1 luciferase knock-in, single point (AID 602393); details: 24 h, at 12.5 µM, hits give high values, 100% = twice the neutral-well signal;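 note: 0% = median of the plate's neutral control wells and 100% = double that signal; a rise in the Bmi1 reporter signal indicates esBAF inhibition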
The whole screen tested about 350,000 compounds, of which about 7,000 (2%) were called active. For the sample, actives were picked, then their nearest neighbours and some compounds at random.
Record form. Attribute: reporter increase. Fill in for each entry.
Respond numerically; units are % and should not be typed.

[in] Output reporter increase of "CCOc1ccc2cc(C#N)c(SCC(=O)OC)nc2c1"
[out] 66.4

[in] Output reporter increase of "COc1ccccc1NC(=O)N[C@H]1CC[C@H](CCNS(=O)(=O)c2ccc(Cl)cc2)O[C@H]1CO"
[out] 16.7

[in] Output reporter increase of "O=C(C[C@@H]1C[C@@H]2c3cc(NC(=O)Cc4ccncc4)ccc3O[C@@H]2[C@H](CO)O1)NCc1cccc(F)c1"
[out] -1.25

[in] Output reporter increase of "C[C@H](CO)N1C[C@H](C)[C@H](CN(C)S(C)(=O)=O)Oc2c(NC(=O)Nc3cccc4ccccc34)cccc2C1=O"
[out] -0.771

[in] Output reporter increase of "CC(C)NC(=O)Nc1ccc2c(c1)C(=O)N([C@@H](C)CO)C[C@@H](C)[C@@H](CN(C)S(=O)(=O)c1ccc(F)cc1)OCCCC[C@H](C)O2"
[out] -2.87

[in] Output reporter increase of "CO[C@H]1CN(C)C(=O)c2cc(NC(=O)C3CC3)ccc2OC[C@H](C)N(CC2CCCC2)C[C@@H]1C"
[out] -2.34

[in] Output reporter increase of "COc1ccc(NC(=O)CCNC(=O)Cn2ccc3ccccc3c2=O)c(OC)c1"
[out] -7.83
